Published Ki for Coagulation factor VII (Homo sapiens), assembled from different documents, is shown next.
Report only the number, with the unit nM understood.

>>> observed_value("N=C(N)c1ccc2nc(-c3cc(C(CC(=O)O)C(=O)O)cc(-c4ccc(Cl)s4)c3O)[nH]c2c1 (stereo not given)")
110
>>> observed_value("COc1cc(C(Nc2ccc(C(=N)N)cc2)C(=O)N[C@H](C(=O)O)c2ccccc2)c(C(=O)Cc2ccccc2)cc1OCc1ccccc1 (stereo not given in full)")
7
>>> observed_value("NC(=O)Nc1cccc(-c2cc(CC(=O)O)cc(-c3cc4nc(N)ccc4[nH]3)c2O)c1")
12000

Memo: CCOc1cc(OCC)c(F)c(C(Nc2ccc(C(=N)N)cc2)C(=O)O)c1 (racemic) , reported Ki: 200

Memo: `COc1ccc(-c2ccc(C(=O)N[C@H](CO)C(C)(C)C)cc2C(=O)O)c(C(=O)Nc2ccc(C(=N)N)cc2)n1` , reported Ki: 10
